pIC50: −log10 of the molar value.
Recorded pIC50 values (BRDT-BD1) are given below.

{"columns": ["Chemical structure", "pIC50"],
 "data": [
  ["Cc1cc(N)ccc1-c1nn(C)c2ccc(C(=O)Nc3ccccc3)cc12", "< 5.00"],
  ["CNC(=O)c1ccc(C(=O)Nc2cc(NC(=O)c3ccc4c(c3)c(-c3ccc(N)nc3)nn4C)ccc2C)cc1", "< 5.00"],
  ["CNC(=O)c1ccc(C(=O)Nc2cc(NC(=O)c3ccc4c(c3)c(-c3ccc(N)cc3)nn4C)ccc2OC)cc1", "< 5.00"]
]}

Please find the next compound below.
Give the reported pIC50 for "CNC(=O)c1ccc(C(=O)Nc2cc(NC(=O)c3ccc4c(c3)c(-c3ccccc3C)nn4C)ccc2OC)cc1" (system: BRDT-BD1).
5.20

* * *

biological target: BRDT-BD2 (Homo sapiens, UniProt Q58F21); test: BROMOscan BromoKdELECT competition binding, BRDT-BD2; parameters: purchased Eurofins DiscoverX Corp; conditions: BromoKdELECT dose-response; read-out: Binding Constants (Kd), nM BRDT-BD2
Property label: Kd (nM)
Value expressed in nM; do not type the unit.

I'd like to know its Kd. The compound in question is CC(=O)Nc1cc(NC(=O)c2ccc3c(c2)c(-c2ccc(N)cc2C)nn3C)ccc1C [Compound 20]
1.3

* * *

assay: Metabolic stability assay in human liver microsomes; type: in vitro ADME; details: human liver microsomes, 2.0 μM, 37 °C; data >60 min are an extrapolated estimate; read-out: t1/2, min HLM
Property label: half-life at 2 μM (h)
Value expressed in h; do not type the unit.

Worked cases, answers included:
{"columns": ["Compound", "Property label", "Measurement units", "Test result"],
 "data": [
  ["CNC(=O)c1ccc(C(=O)Nc2cc(NC(=O)c3ccc4c(c3)c(-c3cc5ccccc5n3C)nn4C)ccc2C)cc1", "half-life at 2 μM", "h", 2.5],
  ["CNC(=O)c1cc(NC(=O)c2ccc3c(c2)c(-c2ccc(N)cc2C)nn3C)ccc1C", "half-life at 2 μM", "h", 7.67],
  ["CNC(=O)c1ccc(C(=O)Nc2cc(NC(=O)c3ccc4c(c3)c(-c3ccc(N)nc3)nn4C)ccc2C)cc1", "half-life at 2 μM", "h", 4]
]}

I'd like to know its half-life at 2 μM. The compound in question is Cc1sc2c(c1C)C(c1ccc(Cl)cc1)=N[C@@H](CC(=O)OC(C)(C)C)c1nnc(C)n1-2 [JQ1, reference compound]
0.1

What do you have for "CNC(=O)c1ccc(C(=O)Nc2cc(NC(=O)c3ccc4c(c3)c(-c3ccc(N)cc3C)nn4C)ccc2C)cc1" ?
2.5

* * *

molecular target: BRD2-BD2 (Homo sapiens, UniProt P25440); construct: purchased Eurofins DiscoverX Corp; experiment: BROMOscan BromoKdELECT competition binding, BRD2-BD2; conditions: BromoKdELECT dose-response; read-out: Binding Constants (Kd), nM BRD2-BD2
Sequence (P25440 344-453 limits assumed): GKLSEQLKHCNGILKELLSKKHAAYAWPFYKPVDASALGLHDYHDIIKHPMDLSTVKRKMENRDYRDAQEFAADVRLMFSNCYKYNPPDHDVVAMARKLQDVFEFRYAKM
Property label: Kd
Write the quantity with the unit trailing the number.

I'd like to know its Kd. The compound in question is CC(=O)Nc1cc(NC(=O)c2ccc3c(c2)c(-c2ccc(N)cc2C)nn3C)ccc1C [Compound 20]
7.8 nM

* * *

target: BRD4-BD2 (Homo sapiens); assay: AlphaScreen competition assay with biotinylated JQ1, BRD4-BD2; format: binding; design: BD2, NP_055114.1 amino acid 333− 460; made in house; host or cells: E. coli NiCo21 (DE3); details: AlphaScreen, biotinylated JQ1 as ligand
Listed next: entries and their corresponding IC50.
Value expressed in nM; do not type the unit.

{"columns": ["Molecule", "Measurement units", "IC50"],
 "data": [
  ["CC(=O)Nc1cc(NC(=O)c2ccc3c(c2)c(-c2ccc(N)nc2)nn3C)ccc1C [Compound 17]", "nM", 51]
]}

I'd like to know its IC50. The molecule in question is CC(=O)Nc1cccc(NC(=O)c2ccc3c(c2)c(-c2ccc(N)cc2C)nn3C)c1 [Compound 21]
21

What do you have for CNC(=O)c1ccc(C(=O)Nc2cc(NC(=O)c3ccc4c(c3)c(-c3cnc(N)cc3C)nn4C)ccc2C)cc1 [Compound 15] ?
140

What do you have for CC(=O)Nc1cc(NC(=O)c2ccc3c(c2)c(-c2ccc(N)cc2C)nn3C)ccc1C [Compound 20] ?
12
